# assay.target: B1 receptor in IMR-90 cells (Homo sapiens)
# Construct: 33E9) with the B1 receptor in IMR-90 cells (IMR-90); endogenous in cells; host or cells: IMR-90 cells (ATCC CCL 186)
# Sequence (P46663 1-353): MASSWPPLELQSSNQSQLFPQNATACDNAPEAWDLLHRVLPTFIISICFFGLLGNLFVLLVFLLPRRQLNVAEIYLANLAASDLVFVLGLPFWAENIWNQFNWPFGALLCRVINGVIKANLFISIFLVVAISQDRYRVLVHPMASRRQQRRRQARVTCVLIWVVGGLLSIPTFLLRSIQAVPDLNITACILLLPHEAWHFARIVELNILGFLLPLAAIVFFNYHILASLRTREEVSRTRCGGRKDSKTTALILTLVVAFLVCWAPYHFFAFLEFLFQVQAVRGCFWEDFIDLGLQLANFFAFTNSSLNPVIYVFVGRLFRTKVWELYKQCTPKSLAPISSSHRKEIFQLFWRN
# measurement.description: Displacement of 1 nM [3H]des-Arg10kallidin, membrane binding assay, IMR-90
Residues, ends and D or L forms follow the SMILES beside them.
A collection of molecules and their measured IC50

# count of solved cases: 2
N=C(N)NCCC[C@H](N)C(=O)N1CCC[C@H]1C(=O)N1CCC[C@H]1C(=O)NCC(=O)N[C@@H](Cc1ccccc1)C(=O)N[C@@H](CO)C(=O)N1CCC[C@H]1C(=O)O [Bradykinin(1-7)] (H-RPPGFSP-OH)    > 10 µM
NC(N)=NCCC[C@H](NC(=O)[C@H](Cc1ccccc1)NC(=O)[C@@H]1CCCN1C(=O)[C@H](CO)NC(=O)[C@H](Cc1ccccc1)NC(=O)CNC(=O)[C@@H]1CCCN1C(=O)[C@@H]1CCCN1C(=O)[C@@H](N)CCCN=C(N)N)C(=O)O [Bradykinin] (H-RPPGFSPFR-OH)    > 10 µM

Query: IC50; subject: `CC[C@H](C)[C@H](NC(=O)[C@H](CCCNC(=N)N)NC(=O)[C@H](CCCNC(=N)N)NC(=O)[C@H](CC(C)C)NC(=O)[C@H](Cc1ccccc1)NC(=O)CNC(=O)CNC(=O)[C@@H](N)Cc1ccc(O)cc1)C(=O)N[C@@H](CCCNC(=N)N)C(=O)N1CCC[C@H]1C(=O)N[C@@H](CCCCN)C(=O)N[C@@H](CC(C)C)C(=O)N[C@@H](CCCCN)C(=O)N[C@@H](Cc1c[nH]c2ccccc12)C(=O)N[C@@H](CC(=O)O)C(=O)N[C@@H](CC(N)=O)C(=O)N[C@@H](CCC(N)=O)C(=O)O`
> 7 µM

Query: IC50; subject: `CC[C@H](C)[C@H](NC(=O)[C@H](Cc1ccc(O)cc1)NC(=O)[C@@H]1CCCN1C(=O)[C@H](CCCNC(=N)N)NC(=O)[C@H](CCCNC(=N)N)NC(C)=O)C(=O)N[C@@H](CC(C)C)C(=O)O`
> 10 µM

Query: IC50; subject: `CC(C)C[C@H](NC(=O)[C@H](Cc1ccccc1)NC(=O)CNC(=O)CNC(=O)[C@@H](N)Cc1ccc(O)cc1)C(=O)O`
> 10 µM

Query: IC50; subject: `NC(=O)CC[C@@H]1NC(=O)[C@H](Cc2ccccc2)NC(=O)[C@H](Cc2ccc(O)cc2)NC(=O)[C@@H](N)CSSC[C@@H](C(=O)N2CCC[C@H]2C(=O)N[C@@H](CCCN=C(N)N)C(=O)NCC(N)=O)NC(=O)[C@H](CC(N)=O)NC1=O`
> 10 µM

----------
# assay.target: cloned human B1 bradykinin receptor in transiently transfected COS-7 cells (COS 33E9) (Homo sapiens, UniProt P46663)
# Construct: the full-length open reading frame of the B1 DNA (encoding a protein of about 40.4 kDa =about base 209 to about base 1267); expressed in transfected cells; host or cells: COS-7 cells, transient electroporation of clone 33E9 (pcDNA3 library vector)
# measurement.description: Displacement of 1 nM [3H]des-Arg10kallidin, membrane binding assay, COS 33E9
pIC50: −log10 of the molar value. Residues, ends and D or L forms follow the SMILES beside them.
measured.metric: pIC50

# count of solved cases: 5
CC[C@H](C)[C@H](NC(=O)[C@H](CCCNC(=N)N)NC(=O)[C@H](CCCNC(=N)N)NC(=O)[C@H](CC(C)C)NC(=O)[C@H](Cc1ccccc1)NC(=O)CNC(=O)CNC(=O)[C@@H](N)Cc1ccc(O)cc1)C(=O)N[C@@H](CCCNC(=N)N)C(=O)N1CCC[C@H]1C(=O)N[C@@H](CCCCN)C(=O)N[C@@H](CC(C)C)C(=O)N[C@@H](CCCCN)C(=O)N[C@@H](Cc1c[nH]c2ccccc12)C(=O)N[C@@H](CC(=O)O)C(=O)N[C@@H](CC(N)=O)C(=O)N[C@@H](CCC(N)=O)C(=O)O [Dynorphin(1-17)]    < 5.15
NC(N)=NCCC[C@H](NC(=O)[C@H](Cc1ccccc1)NC(=O)[C@@H]1CCCN1C(=O)[C@H](CO)NC(=O)[C@H](Cc1ccccc1)NC(=O)CNC(=O)[C@@H]1CCCN1C(=O)[C@@H]1CCCN1C(=O)[C@@H](N)CCCN=C(N)N)C(=O)O [Bradykinin] (H-RPPGFSPFR-OH)    < 5.00
N=C(N)NCCC[C@H](N)C(=O)N1CCC[C@H]1C(=O)N1CCC[C@H]1C(=O)NCC(=O)N[C@@H](Cc1ccccc1)C(=O)N[C@@H](CO)C(=O)N1CCC[C@H]1C(=O)O [Bradykinin(1-7)] (H-RPPGFSP-OH)    < 5.00
CC(C)C[C@H](NC(=O)[C@H](Cc1ccccc1)NC(=O)CNC(=O)CNC(=O)[C@@H](N)Cc1ccc(O)cc1)C(=O)O [Leu-Enkephalin]    < 5.00
CC[C@H](C)[C@H](NC(=O)[C@H](Cc1ccc(O)cc1)NC(=O)[C@@H]1CCCN1C(=O)[C@H](CCCNC(=N)N)NC(=O)[C@H](CCCNC(=N)N)NC(C)=O)C(=O)N[C@@H](CC(C)C)C(=O)O [Acetylated Neurotensin(8-13)]    < 5.00

Turning now to a further record.
Query: pIC50; subject: NC(=O)CC[C@@H]1NC(=O)[C@H](Cc2ccccc2)NC(=O)[C@H](Cc2ccc(O)cc2)NC(=O)[C@@H](N)CSSC[C@@H](C(=O)N2CCC[C@H]2C(=O)N[C@@H](CCCN=C(N)N)C(=O)NCC(N)=O)NC(=O)[C@H](CC(N)=O)NC1=O [Arg Vasopressin]
< 5.00

----------
# assay.target: B1 receptor in IMR-90 cells (Homo sapiens, UniProt P46663)
# Construct: 33E9) with the B1 receptor in IMR-90 cells (IMR-90); endogenous in cells; host or cells: IMR-90 cells (ATCC CCL 186)
# measurement.description: Displacement of 1 nM [3H]des-Arg10kallidin, membrane binding assay, IMR-90
# condition: displacement of 1 nM [3H]des-Arg10kallidin; IMR-90 membranes; read-out: IC50, IMR-90
pIC50: −log10 of the molar value. Residues, ends and D or L forms follow the SMILES beside them.
A collection of compounds and their measured pIC50

# count of solved cases: 4
CC[C@H](C)[C@@H]1NC(=O)[C@H](Cc2ccc(O)cc2)NC(=O)[C@@H](N)CSSC[C@@H](C(=O)N2CCC[C@H]2C(=O)N[C@@H](CC(C)C)C(=O)NCC(N)=O)NC(=O)[C@H](CC(N)=O)NC(=O)[C@H](CCC(N)=O)NC1=O    < 5.00
CC[C@H](C)[C@H](NC(=O)[C@H](Cc1ccc(O)cc1)NC(=O)[C@@H](NC(=O)[C@H](CCCNC(=N)N)NC(=O)[C@@H](N)CC(=O)O)C(C)C)C(=O)N[C@@H](Cc1cnc[nH]1)C(=O)N1CCC[C@H]1C(=O)N[C@@H](Cc1ccccc1)C(=O)O    < 5.00
NC(N)=NCCC[C@@H](N)C(=O)N[C@@H](CCCN=C(N)N)C(=O)N1CCC[C@H]1C(=O)N1C[C@H](O)C[C@H]1C(=O)NCC(=O)N[C@@H](Cc1cccs1)C(=O)N[C@@H](CO)C(=O)N1Cc2ccccc2C[C@@H]1C(=O)N1[C@H](C(=O)N[C@@H](CCCN=C(N)N)C(=O)O)C[C@@H]2CCCC[C@@H]21    < 5.00
N=C(N)NCCC[C@H](NC(=O)[C@H](Cc1ccccc1)NC(=O)[C@@H]1CCCN1C(=O)[C@H](CO)NC(=O)[C@H](Cc1ccccc1)NC(=O)CNC(=O)[C@@H]1CCCN1C(=O)[C@@H]1CCCN1)C(=O)O [Bradykinin(2-9)] (H-PPGFSPFR-OH; N-terminus and C-terminus assumed)    < 5.00

Query: pIC50; subject: `CSCC[C@H](NC(=O)[C@H](CC(C)C)NC(=O)CNC(=O)[C@H](Cc1ccccc1)NC(=O)[C@H](Cc1ccccc1)NC(=O)[C@H](CCC(N)=O)NC(=O)[C@H](CCC(N)=O)NC(=O)[C@@H]1CCCN1C(=O)[C@H](CCCCN)NC(=O)[C@@H]1CCCN1C(=O)[C@@H](N)CCCN=C(N)N)C(N)=O`
< 5.00
